Reference source for all entries: patent US11542316B2

ASSAY_DETAILS: Solubility of peptides
Type: physicochemical
Ends that are not written are not given here.
MEASUREMENT_TYPE: solubility

- KKKVIFKKISRDKSVTIYLGKKK-NH2 [HIP-115NE3-KKK]: soluble
- LTKTLTLLPLLANNRERR-NH2 [HIP-24DG, LTKTLTLLPLLANNRERR]: soluble
- LPLLANNRERRGIA-NH2 [HIP-24HM3, LPLLANNRERRGIA]: soluble
- PLLANNRERRGI-NH2 [HIP-24HM2, PLLANNRERRGI]: soluble
- KKKAFVEQVANVVLKKK-NH2 [HIP-9K1-KKK, KKKAFVEQVANVVLKKK]: soluble
- AFVEQVANVVL-NH2 [HIP-9K1, AFVEQVANVVL]: insoluble
- VIFKKISRDKSVTIYLG-NH2 [HIP-115NE3, VIFKKISRDKSVTIYLG]: insoluble
